assay: drug combination growth inhibition, ovarian cancer – cell-based, oncology-focused library, rucaparib conditional, profiling panel (AID 1508598); details: patient-derived ovarian cancer cells, CellTiter-Glo viability, 144 h; at 5 µM; OCI-P5x cells; without rucaparib; hits give low values
*1 amine or outer side, *2 acyl side, *3 side chain or, on linkers, in order; H or OH if unused. Where a SMILES comes first, the peptide text is derived from it. Bridges are numbered along the chain shown (N, C = ends). Roman numbers before positions name the chains, in order. [ ]: non-standard residue; d: D form. Hexamethylenediamine = C(CCCN[*:2])CCN[*:1]; Dip = N[C@H](C(=O)O)C(c1ccccc1)c1ccccc1; Chg = N[C@H](C(=O)O)C1CCCCC1; NMeA = CN[C@@H](C)C(=O)O
Would you kindly list viability for each of these molecules?
Report the figure in % without appending any unit label.

Query block: Recorded viability for CC[C@]1(O)C[C@@H]2CN(CCc3c([nH]c4ccccc34)[C@@](C(=O)OC)(c3cc4c(cc3OC)N(C=O)[C@@H]3C45CCN4CC=C[C@](CC)([C@H]45)[C@H](OC(C)=O)[C@]3(O)C(=O)OC)C2)C1 (stereo partly specified) , please?
Result block: 13.1

Query block: // repeat for NC(=O)CCCSc1nc(N)nc(-c2c(Cl)cc3c4c(cccc24)COC3)n1 and report
Result block: 3.17

Query block: // repeat for Cc1[nH]c(C=C2C(=O)Nc3ccc(S(=O)(=O)N(C)c4cccc(Cl)c4)cc32)c(C)c1C(=O)N1CCN(C)CC1 and report
Result block: 58.4

Query block: // repeat for CC(=O)O[C@]12CO[C@@H]1C[C@H](O)[C@]1(C)C(=O)[C@H](O)C3=C(C)[C@H](OC(=O)[C@H](O)[C@@H](NC(=O)OC(C)(C)C)c4ccccc4)C[C@](O)([C@H](OC(=O)c4ccccc4)C21)C3(C)C (stereo partly specified) and report
Result block: 16.1

Query block: // repeat for Cc1cc(C)c(-c2csc(NC(=O)c3ccccc3)n2)c(C)c1 and report
Result block: 95.6

Query block: // repeat for C[C@H](O[C@H]1OCCN(Cc2n[nH]c(=O)[nH]2)[C@H]1c1ccc(F)cc1)c1cc(C(F)(F)F)cc(C(F)(F)F)c1 and report
Result block: 97.5

Query block: // repeat for CC1=C(/C=C/C(C)=C\C=C\C(C)=C/C(=O)O)C(C)(C)CCC1 and report
Result block: 82.8

Query block: // repeat for N[C@@H]1CCCN(c2c(/C=C3\SC(=O)NC3=O)cccc2-c2ccccc2)C1 and report
Result block: 97.5

Query block: // repeat for COc1cc([C@H]2c3cc4c(cc3[C@@H](O[C@@H]3O[C@@H]5CO[C@@H](C)O[C@H]5[C@H](O)[C@@H]3O)[C@H]3COC(=O)[C@H]23)OCO4)cc(OC)c1O and report
Result block: 26.7

Query block: // repeat for COc1cc([C@H]2c3cc4c(cc3[C@@H](O[C@@H]3O[C@@H]5CO[C@@H](c6cccs6)O[C@H]5[C@H](O)[C@H]3O)[C@H]3COC(=O)[C@H]23)OCO4)cc(OC)c1O and report
Result block: 7.92

Query block: // repeat for Cc1cc([N+](=O)[O-])ccc1NS(=O)(=O)c1cc(Cl)ccc1Cl and report
Result block: 70.2

Query block: // repeat for Cc1cc(NC(=O)c2cccc(NC(=O)/C=C/CN(C)C)c2)ccc1Nc1nccc(-c2cccnc2)n1 and report
Result block: 108

Query block: // repeat for C[C@]12C=CC(=O)C=C1CC[C@@H]1[C@H]2C(=O)C[C@@]2(C)[C@H]1CC[C@@]2(O)C(=O)CO and report
Result block: 77.4

Query block: // repeat for CO[C@H]1C[C@H]2CC[C@@H](C)[C@@](O)(O2)C(=O)C(=O)N2CCCC[C@H]2C(=O)O[C@H]([C@H](C)C[C@@H]2CC[C@H](OC(=O)C(C)(CO)CO)[C@H](OC)C2)CC(=O)[C@H](C)/C=C(\C)[C@@H](O)[C@@H](OC)C(=O)[C@H](C)C[C@H](C)/C=C/C=C/C=C/1C and report
Result block: 54.1

Query block: // repeat for CN[C@@H](C)C(=O)N[C@H](C(=O)N1CCC[C@H]1C(=O)N[C@H](C(=O)NCCCCCCNC(=O)[C@@H](NC(=O)[C@@H]1CCCN1C(=O)[C@@H](NC(=O)[C@H](C)NC)C1CCCCC1)C(c1ccccc1)c1ccccc1)C(c1ccccc1)c1ccccc1)C1CCCCC1 (I: H-[NMeA][Chg]P[Dip] / II: H-[NMeA][Chg]P[Dip]; linker I:C-II:C via Hexamethylenediamine) and report
Result block: 7.49

Query block: // repeat for C=C1/C(=C/C=C2\CCC[C@@]3(C)[C@H]2CC[C@H]3[C@H](C)/C=C/[C@@H](C)C(C)C)C[C@H](O)C[C@@H]1O and report
Result block: 103

Query block: // repeat for CC#C[C@@]1(O)CC[C@H]2[C@@H]3CCC4=CC(=O)CCC4=C3[C@H](c3ccc(N(C)C)cc3)C[C@@]21C and report
Result block: 89.7

Query block: // repeat for COc1cc(=C2C=c3ccccc3=N2)[nH]/c1=C\c1[nH]c(C)cc1C and report
Result block: 3.6

Query block: // repeat for Cc1cc(C)c(S(=O)(=O)n2cc(C)cc2C)c(C)c1 and report
Result block: 102

Query block: // repeat for CO[C@H]1C[C@@H]2CC[C@@H](C)[C@@](O)(O2)C(=O)C(=O)N2CCCC[C@H]2C(=O)O[C@H]([C@H](C)C[C@@H]2CC[C@@H](O)[C@H](OC)C2)CC(=O)[C@H](C)/C=C(\C)[C@@H](O)[C@H](OC)C(=O)[C@H](C)C[C@H](C)/C=C/C=C/C=C/1C and report
Result block: 61

Query block: // repeat for CCCc1ccc(OCC(=O)N(Cc2nc(-c3cccnc3)no2)C(C)C)cc1 and report
Result block: 100

Query block: // repeat for Nc1nonc1C(=Nc1ccc(F)c(Cl)c1)NO and report
Result block: 90.1

Query block: // repeat for CN(C)CCOc1ccc(-c2nc(-c3ccc4c(c3)CCC4=NO)c(-c3ccncc3)[nH]2)cc1 and report
Result block: 102

Query block: // repeat for CC[C@]1(O)C[C@@H]2CN(CCc3c([nH]c4ccccc34)[C@@](C(=O)OC)(c3cc4c(cc3OC)N(C=O)[C@H]3[C@@](O)(C(=O)OC)[C@H](OC(C)=O)[C@]5(CC)C=CCN6CC[C@@]43[C@@H]65)C2)C1 and report
Result block: 11.8

Query block: // repeat for CCC1=CC2CN(C1)Cc1c([nH]c3ccccc13)[C@@](C(=O)OC)(c1cc3c(cc1OC)N(C)[C@H]1[C@@](O)(C(=O)OC)[C@H](OC(C)=O)[C@]4(CC)C=CCN5CC[C@@]31[C@H]54)C2 (stereo partly specified) and report
Result block: 8.33

Query block: // repeat for CC(C)NCCCn1c(Sc2cc3c(cc2I)OCO3)nc2c(N)ncnc21 and report
Result block: 6.28
